- Experimental Protocol: Stability of separated diastereoisomers (reversion into the original mixture)
- Format: physicochemical
- Condition Parameters: hplc mobile phase solution; ambient temperature, mobile phase methylene chloride/cyclohexane/methanol/conc. ammonia; read-out: reverts into the original mixture, t1/2
Property Label: half-life

Request the reported half-life associated with CN1CCN(CC2CCCCN2CC(=O)N2c3ccccc3NC(=O)c3ccccc32)CC1 (single isomer, unassigned) [Isomer I] < 216 h

----------
- Test Target: muscarinic receptors (cerebral cortex)
- Experimental Protocol: Receptor binding tests: inhibition of specific 3H-N-methylscopolamine binding, cerebral cortex
- Set-up: species or system Sprague-Dawley rats
- Condition Parameters: cerebral cortex homogenate 1:3000; 0.3 nM 3H-NMS; 30° C., 45 min, pH 7.4
Readings of pIC50 for the listed compounds
Scale: negative log10 of molar concentration, which is what pIC50 denotes.

The cases that follow already have their pIC50 on record.
Compound	pIC50
CCN(CC)CC1CCCCN1CC(=O)N1c2ccccc2NC(=O)c2cscc21 (stereo not shown)	5.66
CN1CCCC1C1CCCN(CC(=O)N2c3ccccc3NC(=O)c3ccccc32)C1 (stereo not shown)	6.92
CN(CC1CCCCN1CC(=O)N1c2ccccc2C(=O)Nc2cccnc21)[C@H]1CC[C@H](O)CC1 (relative stereo)	5.96
CN(C)CCC1CCCCN1CC(=O)N1c2ccccc2C(=O)Nc2cccnc21 (stereo not shown)	5.89
CN(CC1CCCN(CC(=O)N2c3ccccc3NC(=O)c3ccccc32)C1)C1CCCCC1 (stereo not shown)	7.70
CN(CC1CCCN(CC(=O)N2c3ccccc3C(=O)Nc3cccnc32)C1)C1CCCCC1 (stereo not shown)	7.07

Request the reported pIC50 associated with "CCN(CC)C[C@@H]1CCCN1CC(=O)N1c2ccccc2C(=O)Nc2cccnc21" 5.35

----------
- Test Target: muscarinic receptors (heart) (Rattus norvegicus, UniProt P10980)
- Construct: The whole heart is cut up with scissors; All the organs are then homogenised in a Potter apparatus
- Sequence (P10980 whole entry): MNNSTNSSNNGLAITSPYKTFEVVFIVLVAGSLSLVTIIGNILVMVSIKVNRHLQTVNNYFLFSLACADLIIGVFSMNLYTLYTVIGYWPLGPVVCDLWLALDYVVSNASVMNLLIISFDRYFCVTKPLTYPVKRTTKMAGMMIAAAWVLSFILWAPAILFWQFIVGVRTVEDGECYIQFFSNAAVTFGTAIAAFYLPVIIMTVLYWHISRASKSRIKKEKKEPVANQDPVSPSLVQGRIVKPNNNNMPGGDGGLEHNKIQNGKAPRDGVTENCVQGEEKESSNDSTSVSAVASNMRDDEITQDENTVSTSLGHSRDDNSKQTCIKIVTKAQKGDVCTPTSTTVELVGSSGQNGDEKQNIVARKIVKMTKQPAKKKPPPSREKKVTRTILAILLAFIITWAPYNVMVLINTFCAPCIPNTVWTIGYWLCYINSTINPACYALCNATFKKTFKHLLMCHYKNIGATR
- Experimental Protocol: Receptor binding tests: inhibition of specific 3H-N-methylscopolamine binding, whole heart
- Condition Parameters: whole heart homogenate 1:250; 0.3 nM 3H-NMS; 30° C., 45 min, pH 7.4
- Procedure: B. Studies of binding to muscarinic receptors: determining the IC50 value The organ donors are Sprague-Dawley rats weighing from 180-220 g. […] The homogenised organs are incubated at a specific concentration of the radioligand and with a series of concentrations of the non-radioactive test substances in an Eppendorf centrifugal test tube at 30° C. […] After incubation has been ended by centrifuging at 14,000 g, the radioactivity in the pellet is determined. […]
We'd kindly ask you to apply these IC50 classes: lowest: < 20 nM; middle: ≥ 20 nM and < 90 nM; highest: ≥ 90 nM

Answered cases to consult:
Compound	Assigned Class
CCN(CC)CC1CCCCN1CC(=O)N1c2ccccc2NC(=O)c2cscc21 (centres unmarked) [G]	highest
CN(CC1CCCCN1CC(=O)N1c2ccccc2C(=O)Nc2cccnc21)[C@H]1CC[C@H](O)CC1 (relative stereo) [K]	middle
CCN(CC)C[C@@H]1CCCN1CC(=O)N1c2ccccc2C(=O)Nc2cccnc21 [H]	highest
CN(CC1CCCCN1CC(=O)N1c2ccccc2NC(=O)c2ccccc21)C1CCCCC1 (centres unmarked) [N]	lowest
CCCCN(C)CC1CCCCN1CC(=O)N1c2ccccc2NC(=O)c2ccccc21 (centres unmarked) [Q]	lowest
CCN(CC)CC1CCCN(CC(=O)N2c3ccccc3NC(=O)c3ccccc32)C1 (centres unmarked) [M]	middle

Now look at this one.
Please report the category associated with CN(CC1CCCN(CC(=O)N2c3ccccc3C(=O)Nc3cccnc32)C1)C1CCCCC1 (centres unmarked) [L] , nothing else. lowest
